Values from PubChem BioAssay (NCI)

- Test system: SW-620 colon
- Measurement description: NCI-60 one-dose screen, 48 h (100 = growth as untreated, 0 = no growth, -100 = all killed)
- Run parameters: 10 µM unless noted
This is part of a sample that, as a whole, favours compounds with a hit. Of some 83,000 tested, about 20% had one in any assay. Calls of active or inactive are those of the source. The calls were made as follows: active = growth percent below 10; inactive = the rest.
Outcome measure: growth

Molecule: CNCCOc1nc2c3cnccc3cc(-c3cc(OC)c(OC)c(OC)c3)c2c2ccncc12
Obs value: 3.63% (active)

Bench note: what growth did O=C(CCN1CCCC1)Nc1ccc2c(NCCCCc3ccccc3)c3ccccc3nc2c1 show?
-60.5% (active)

Look up growth: COc1cc2c(c(OC)c1OC)CCC(c1cccc(NC(=O)c3cccc(Br)c3)c1)O2 (stereo not given)
93.2% (inactive)

Could you tell me which growth is on file for O=C(c1ccccc1)N1N=C(c2ccc(-n3ccc(C(F)(F)F)n3)c(F)c2)CC1c1ccc[nH]1 (stereo not given) ?
108% (inactive)

# growth lookup, item C=C(C)[C@@H]1CC[C@]2(C(=O)N[C@@H](Cc3ccccc3)C(=O)OC)CC[C@]3(C)[C@H](CC[C@@H]4[C@@]5(C)CCC(=O)C(C)(C)[C@@H]5CC[C@]43C)[C@@H]12
95.4% (inactive)

Quick one: growth for COc1ccc(C(=O)c2cc(OC)c(OC)c(OC)c2)cc1O ?
22.3% (inactive)

Give the measured growth of O=C(/C=C(O)/C=C/c1ccc(SC(F)(F)F)cc1)/C=C/c1ccc(SC(F)(F)F)cc1 .
89.1% (inactive)

Name the reported growth value associated with the molecule Cc1cc2nc3c4ccc(Br)cc4n(CCN(C)C)c3nc2cc1C
0.693% (active)

Entry Cn1cc(CC2CC(=O)N(c3ccccc3)C2=O)sc1=NC(=O)c1ccccc1 (stereo not given) has what growth?
94.5% (inactive)

I'd like to know its growth. The molecule in question is CCN(CC)c1ccc(C(=O)c2ccccc2)cc1
102% (inactive)

Requested read-out: growth. Entry: CC1=CCC(OC(=O)C(C)(O)CCC(O)(C(=O)OC2(C)C=CC(O)(C(C)C)CC2)C(C)C)(C(C)C)CC1 (stereo not given)
103% (inactive)

Please give the measured growth for this molecule: O=C(Cc1ccc(/C=C/C(=O)c2ncc[nH]2)cc1)Nc1ccc(Cl)cc1
-35.3% (active)

Endpoint output: growth of N#Cc1c(NCc2ccccc2I)sc2c1CCCCC2 . Value?
97.2% (inactive)

What measured growth goes with CCCCCN1C=C/C(=C\C(=O)N(C)c2ccccc2Br)c2ccccc21 ?
97% (inactive)

Reported growth, molecule COc1ccccc1NC(=O)C1CC(c2ccc(F)cc2)=NO1 (stereo not given) : ____
102% (inactive)

What measured growth goes with O=C1OC(Cc2ccccc2)C1c1ccccc1 (stereo not given) ?
107% (inactive)

Using the record for CCCOC(=O)N[C@H]1CCc2cc(OC)c(OC)c(OC)c2-c2ccc(SC)c(=O)cc21 , report its growth.
18.4% (inactive)

growth lookup needed for CN(C)c1ccc(Nc2c3ccccc3nc3cc(NC(=O)CCN4CCCC4)ccc23)cc1 , thanks.
-33.3% (active)

# growth lookup, item COc1cc(/C=C\c2cc(/C=C\c3ccc(O)c(OC)c3)n(C(=O)COc3ccccc3)n2)ccc1O
7.35% (active)

Data request, read-out growth, for COc1cc(C2C3=C(COC3=O)N(CCO)c3cc4c(cc32)CCC4)cc(OC)c1OC (stereo not given)
21.4% (inactive)

---

- Tested on: HOP-62 NSCLC
- Measurement description: NCI-60 one-dose screen, 48 h
- Run parameters: 10 µM unless noted
About 83,000 compounds went through this panel and 20% of them were active in at least one assay; those are over-represented in the sample as a whole. Active and inactive are the calls of the source. How the source made its calls: active means growth percent below 10; inactive means the rest.
Returns: one label drawn from active, inactive

Reference set (10 entries):
Compound: O=C1C=CC(=O)N1c1cccc(Cl)c1
Class: inactive

Compound: COc1cc(/C=N/NC(=O)c2cnn3c2NC(c2ccccc2)C3)ccc1Oc1ccccc1 (centres undefined)
Class: inactive

Compound: Cc1nn(-c2ccccc2)c(Cl)c1/C=N\N=c1/sc2ccccc2n1C
Class: inactive

Compound: CC1(C)CC(=O)C2=C(C1)N(c1ccc(F)cc1F)C(N)=C(C#N)C2c1cc(Br)ccc1F (centres undefined)
Class: inactive

Compound: CCOC(=O)c1cc(C(=O)c2cc(OC)cc(OC)c2)n2ccc3ccccc3c12
Class: inactive

Compound: COc1ccc(/C=C/c2nc(Nc3ccc(S(=O)(=O)Nc4cc(C)on4)cc3)c3ccccc3n2)cc1
Class: inactive

Compound: COc1ccccc1/C=C1\Oc2cc(OCCN3CCCC3)ccc2C1=O
Class: inactive

Compound: CCN1C(=O)/C(=C/C(=O)OC)S/C1=N\NC(=O)c1cc2ccc1/C=C\c1ccc(cc1)/C=C\2
Class: inactive

Compound: COc1ccc(C(=O)/C=C/c2cc3ccccc3n3nnnc23)cc1
Class: inactive

Compound: CCOC(=O)c1nc2c3ccccc3ccn2c1C(=O)OCC
Class: inactive

Any idea what this test logged for CCCCCN1C=C/C(=C\C(=O)n2ccc3ccccc32)c2ccccc21 ?
inactive

Would you mind telling me which call this test gave NS(=O)(=O)c1ccc(CCN2C(=O)c3cc(Cl)c(Cl)cc3C2=O)cc1 ?
inactive

Record request — test call for COc1ccc(/C=C/c2nc(Nc3ccc(Cl)cc3)c3ccccc3n2)cc1
inactive

How was C#Cc1cccc(NC(=O)c2cccc(NC(=O)CCl)c2)c1 classified in this test?
active

Please let me know the test result on file for CCN1C(=O)N(CC)C2Nn3c(s/c(=C\c4ccc(OC)cc4)c3=O)=NC21 (centres undefined) .
inactive

Could you kindly confirm the outcome this assay logged for Cc1c(C(=O)NCCC(=O)NO)sc2ncnc(Nc3ccc(NC(=O)Nc4cccc(C(F)(F)F)c4)cc3)c12 ?
inactive

Tell me the recorded outcome of this test for c1ccc2cc(Cn3c(-c4cccc5ccccc45)[n+](Cc4ccc5ccccc5c4)c4c5ccccc5c5ccccc5c43)ccc2c1 .
active

Hi, do you know how CCNc1nc2ccc(Nc3ccnc4cc(Cl)ccc34)cc2[nH]1 came out in this test?
inactive

Check the results log: what was the call for Oc1cccc(CCc2ccc(Oc3cc(CCc4cccc(O)c4)cc(O)c3O)cc2)c1 ?
inactive

Just curious, what result did C=C1C(=O)O[C@H]2[C@H]1CC/C(CNC(=O)/C=C/c1cccc(OC)c1)=C\CC[C@@]1(C)O[C@@H]21 get here?
inactive

# fetch the recorded call for COc1cc(/C=C2\COc3ccc(-c4ccccc4)cc3C2=O)cc(OC)c1 here
inactive

Hi, sorry to bother you, what did the test record for O=C(CCN1CCCC1)Nc1ccc2c(NCCCc3ccccc3)c3ccccc3nc2c1 ?
inactive

Outcome? NC(=O)Nc1ccc(-n2cnc3cc(-c4ccc(O)cc4)ccc32)cc1
inactive

Outcome logged for N#CC(C#N)=Cc1cc2ccccc2nc1Oc1ccc(C(F)(F)F)cc1 in this assay:
inactive

Assay result, entry COc1ccc2nc(-c3ccc(-c4noc(-c5cc(OC)c(OC)c(OC)c5)n4)cc3)[nH]c2c1 — outcome?
inactive

Outcome logged for CC1(C)CC[C@]2(C(=O)O)CC[C@]3(C)C(=CC[C@@H]4[C@@]5(C)Cc6c([nH]c7ccccc67)C(C)(C)[C@@H]5CC[C@]43C)[C@@H]2C1 in this assay:
inactive

Each compound tested received a call. Report the one for Cc1cc2nc3c4cc([N+](=O)[O-])ccc4n(CCN(C)C)c3nc2cc1C .
active

Returns: the outcome recorded for OC(c1cccc(C(F)(F)F)c1)c1cnccc1NC1CCCCC1 (centres undefined) in this assay.
inactive

---

- System: CAKI-1 renal
- Measurement description: NCI-60 one-dose screen, 48 h
- Run parameters: 10 µM unless noted
Compounds without any hit were thinned out: in the full panel of roughly 83,000, 20% have a hit. Calls of active or inactive are those of the source. The calls were made as follows: active = growth percent below 10; inactive = the rest.
Mark one answer only. Choices: T (active), F (inactive)

Compound: COc1cc2nc(-c3ccc(C(F)(F)F)cc3)cc(OCCCN3CCOCC3)c2cc1OC
Class: T
//
Compound: NS(=O)(=O)c1ccc(CCn2c(SCC(=O)c3ccc(Cl)cc3)nc3ccccc3c2=O)cc1
Class: F
//
Compound: C[C@H]1[C@H]2[C@H]3CC[C@@H]4[C@@]5(C)CC[C@H](O)C(C)(C)[C@@H]5CC[C@@]4(C)[C@]3(C)CC[C@]23CO[C@]1(C)[C@@H](C(=O)/C=C\c1ccco1)C3
Class: F
//
Compound: CCCCCCCCOc1ccc(/C=N/Nc2cc(C)nc3ccc(Br)cc23)cc1
Class: F
//
Compound: O=C(O)c1ccc(-c2nn(-c3ccc(C(F)(F)F)cc3)cc2CNc2ccc(Oc3ccccc3)cc2)cc1
Class: F
//
Compound: CCNC(=O)Oc1ccc(/C(=C(\C)c2ccccc2)c2ccc(OCCCN(C)C)cc2)cc1
Class: F

Outcome? CCN(CC)c1ccc(/C=N/NC(=O)CSc2nc3ccccc3c(=O)n2Cc2ccc(S(N)(=O)=O)cc2)c(O)c1
F

// param item: NC(=S)N1N=C(c2ccccc2)CC1c1cn(-c2ccccc2)nc1-c1ccc(OCc2ccccc2)cc1 (stereo not drawn) ; yields the recorded call
F
